Data provenance: ChEMBL document CHEMBL4706774

# study target: Retinoic acid receptor RXR-alpha (Homo sapiens)
# Sequence (P19793 whole entry, the tested form may be a part): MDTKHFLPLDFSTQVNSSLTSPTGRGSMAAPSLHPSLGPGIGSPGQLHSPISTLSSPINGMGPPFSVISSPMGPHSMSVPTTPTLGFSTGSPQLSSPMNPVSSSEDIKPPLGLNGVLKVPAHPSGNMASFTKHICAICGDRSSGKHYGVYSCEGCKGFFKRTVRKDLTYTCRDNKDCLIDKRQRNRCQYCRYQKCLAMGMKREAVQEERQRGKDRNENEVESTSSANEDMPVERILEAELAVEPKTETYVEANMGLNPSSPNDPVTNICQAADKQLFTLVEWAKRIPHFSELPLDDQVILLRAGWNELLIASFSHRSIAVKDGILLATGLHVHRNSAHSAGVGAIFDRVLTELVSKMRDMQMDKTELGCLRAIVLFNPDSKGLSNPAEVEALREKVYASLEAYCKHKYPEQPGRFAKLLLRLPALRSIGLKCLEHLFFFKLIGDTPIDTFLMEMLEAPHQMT
# measurement protocol: Binding affinity to human RXRalpha-LBD (224 to 462 residues) expressed in Escherichia coli BL21(DE3) incubated for 2 hrs by fluorescence assay
measured attribute: Kd (nM)

| cpd smiles | uom | Kd |
| --- | --- | --- |
| CC1=CC(C)=[N+]2C1=C(c1ccc(C(=O)NCCOCCOc3cc4c(cc3-n3c(C(F)(F)F)nc5cc(C(=O)O)ccc53)C(C)(C)CCC4(C)C)cc1)c1c(C)cc(C)n1[B-]2(F)F | nM | 761 |
| CC1(C)CCC(C)(C)c2cc(-n3c(C(F)(F)F)nc4cc(C(=O)O)ccc43)c(OCCOCCNc3ccc([N+](=O)[O-])c4nonc34)cc21 | nM | 629 |

----------
# study target: Retinoic acid receptor RXR-alpha (Homo sapiens)
# measurement protocol: Binding affinity to human RXRalpha-LBD (224 to 462 residues) expressed in Escherichia coli BL21(DE3) incubated for 1 hr by fluorescence polarization assay
measured attribute: pKd
Answer as the number alone; pKd is minus log10 of concentration in mol/L.

Item CC1=CC(C)=[N+]2C1=C(c1ccc(C(=O)NCCOCCOc3cc4c(cc3-n3c(C(F)(F)F)nc5cc(C(=O)O)ccc53)C(C)(C)CCC4(C)C)cc1)c1c(C)cc(C)n1[B-]2(F)F has what recorded pKd? 6.43
